target_system: PPARγ (Homo sapiens)
Sequence (P37231 1-505): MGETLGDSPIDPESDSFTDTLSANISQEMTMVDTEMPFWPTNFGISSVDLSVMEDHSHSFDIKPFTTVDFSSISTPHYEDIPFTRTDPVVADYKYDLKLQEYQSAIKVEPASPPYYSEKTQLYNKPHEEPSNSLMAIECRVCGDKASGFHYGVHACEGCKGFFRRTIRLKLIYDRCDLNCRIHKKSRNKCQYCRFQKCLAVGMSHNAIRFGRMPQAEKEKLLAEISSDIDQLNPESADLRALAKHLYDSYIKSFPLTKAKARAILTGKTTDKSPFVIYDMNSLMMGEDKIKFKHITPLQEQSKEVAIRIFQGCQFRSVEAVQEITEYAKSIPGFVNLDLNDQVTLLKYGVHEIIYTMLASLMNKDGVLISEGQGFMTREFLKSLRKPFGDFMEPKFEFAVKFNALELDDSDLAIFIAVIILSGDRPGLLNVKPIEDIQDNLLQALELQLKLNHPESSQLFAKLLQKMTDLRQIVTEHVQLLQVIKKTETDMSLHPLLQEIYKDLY
test_summary: PPARγ reporter assay (Indigo Biosciences)
Format: cell-based
observable: EC50 (µM)
Give bare numbers, in µM.

**Q:** # value lookup — system PPARγ (Homo sapiens), readout EC50, item "CCCc1nc2c(C)cc(-c3nc4ccccc4n3C)cc2n1Cc1ccc(-c2ccccc2C(=O)O)cc1"
**A:** 13.4
